Tested On: Human recombinant PDE2A (hPDE2A) (Homo sapiens, UniProt O00408)
Construct: His tag (inferred from metal chelate purification); made in house; host or cells: Sf9 insect cells (baculovirus)
Sequence (O00408 whole entry): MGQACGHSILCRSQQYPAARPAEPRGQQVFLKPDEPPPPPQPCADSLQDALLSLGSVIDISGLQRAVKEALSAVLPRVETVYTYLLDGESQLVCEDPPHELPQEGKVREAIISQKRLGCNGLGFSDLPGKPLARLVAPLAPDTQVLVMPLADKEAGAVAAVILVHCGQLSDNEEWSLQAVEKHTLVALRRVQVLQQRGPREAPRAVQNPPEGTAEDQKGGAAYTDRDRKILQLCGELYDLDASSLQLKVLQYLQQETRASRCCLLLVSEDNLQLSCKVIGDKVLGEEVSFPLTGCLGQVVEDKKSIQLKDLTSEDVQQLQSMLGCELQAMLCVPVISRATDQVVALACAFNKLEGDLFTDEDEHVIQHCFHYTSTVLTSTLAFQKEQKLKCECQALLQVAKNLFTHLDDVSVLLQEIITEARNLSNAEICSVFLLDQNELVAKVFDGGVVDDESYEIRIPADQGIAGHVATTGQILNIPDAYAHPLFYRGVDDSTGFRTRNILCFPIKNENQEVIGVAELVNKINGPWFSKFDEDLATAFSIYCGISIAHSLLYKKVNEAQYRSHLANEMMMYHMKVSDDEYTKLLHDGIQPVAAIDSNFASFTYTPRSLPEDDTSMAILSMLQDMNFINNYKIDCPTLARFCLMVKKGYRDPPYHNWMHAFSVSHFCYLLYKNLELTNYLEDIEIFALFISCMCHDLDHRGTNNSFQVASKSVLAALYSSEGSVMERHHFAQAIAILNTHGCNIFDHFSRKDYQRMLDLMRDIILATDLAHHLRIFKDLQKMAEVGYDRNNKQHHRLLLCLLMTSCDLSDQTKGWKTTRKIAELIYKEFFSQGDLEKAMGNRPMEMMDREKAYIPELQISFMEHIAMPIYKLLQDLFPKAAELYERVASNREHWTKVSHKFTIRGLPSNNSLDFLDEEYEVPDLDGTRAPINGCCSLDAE
Assay Method Text: In vitro assay PDE2A (SPA, 3H-cGMP hydrolysis)
Assay type: biochemical
Condition Set: read-out: hPDE2A Emax
For each entry below, report its Emax value.
The reply should contain only the number, in %.

Prompt: Find the measured Emax of C[C@@H]1CCN(C(=O)c2cc3ccc(C(F)(F)F)cc3[nH]2)C[C@H]1c1cc(C(F)F)nc2ncnn12 [Compound 94] and report it.
Response: 101

Prompt: Provide one value: measured Emax of C[C@@H]1CCN(C(=O)c2ccc3c(ccn3CCF)c2)C[C@H]1c1cc(C(F)F)nc2ncnn12 [Compound 89]
Response: 104

Prompt: Give the reported Emax for this molecule. Cc1cc([C@@H]2CN(C(=O)c3cc(C4CC4)ncc3C3CC3)CC[C@H]2C)n2ncnc2n1 [Compound 390]
Response: 98

Prompt: # return recorded Emax for entry C[C@@H]1CCN(C(=O)c2cccc3ncoc23)C[C@H]1c1cc(C(F)F)nc2ncnn12 [Compound 176]
Response: 100

Prompt: Please report the measured Emax for Cc1oncc1C(=O)N1CC[C@@H](C)[C@H](c2cc(C(F)F)nc3ncnn23)C1 [Compound 260]
Response: 97

Prompt: Give the measured Emax for C[C@@H]1CCN(C(=O)c2ccc3cc[nH]c3c2)C[C@H]1c1cc(C(F)F)nc2ncnn12 [Compound 106]
Response: 100

Prompt: Name the recorded Emax of the item Cc1cc2ccc(C(=O)N3CC[C@@H](C)[C@H](c4cc(C(F)F)nc5ncnn45)C3)cn2c1 [Compound 289] in your answer.
Response: 100

Prompt: Quote Emax reported for Cc1cc(C)cc(C(=O)N2CC[C@H](C)[C@@H](c3cc(C(F)F)nc4ncnn34)C2)c1 [Compound 214] please.
Response: 9

Prompt: Give Emax for the following molecule: Cc1cccnc1C(=O)N1CC[C@@H](C)[C@H](c2cc(C(F)F)nc3ncnn23)C1 [Compound 229]
Response: 95

Prompt: Provide Emax value for the following molecule: Cc1cc(C(=O)N2CC[C@@H](C)[C@H](c3cc(C(F)F)nc4ncnn34)C2)c(Cl)cn1 [Compound 51]
Response: 101

Prompt: Provide one value: measured Emax of Cc1cc([C@@H]2CN(C(=O)c3cc(Cl)ncc3Cl)CC[C@H]2C)n2ncnc2n1 [Compound 271]
Response: 99

Prompt: For the molecule C[C@@H]1CCN(C(=O)c2c[nH]c3ccc(F)cc23)C[C@H]1c1cc(C(F)F)nc2ncnn12 [Compound 112] , report Emax.
Response: 101

Prompt: Please give the documented Emax of C[C@@H]1CCN(C(=O)c2ccncc2F)C[C@H]1c1cc(C(F)F)nc2ncnn12 [Compound 155]
Response: 98

Prompt: Look up and report measured Emax for this entry: Cc1c(C(=O)N2CC[C@@H](C)[C@H](c3cc(C(F)F)nc4ncnn34)C2)ccc2c1OCO2 [Compound 145]
Response: 99

Prompt: Supply recorded Emax for C[C@@H]1CCN(C(=O)c2ccnc(C3CC3)c2F)C[C@H]1c1cc(C(F)F)nc2ncnn12 [Compound 120] here.
Response: 100

Prompt: Answer with the recorded Emax for the molecule listed here: C[C@@H]1CCN(C(=O)c2ccc(Cl)s2)C[C@H]1c1cc(C(F)F)nc2ncnn12 [Compound 180]
Response: 100
